TARGET OR SYSTEM: UniProt P28566
Sequence (P28566 whole entry): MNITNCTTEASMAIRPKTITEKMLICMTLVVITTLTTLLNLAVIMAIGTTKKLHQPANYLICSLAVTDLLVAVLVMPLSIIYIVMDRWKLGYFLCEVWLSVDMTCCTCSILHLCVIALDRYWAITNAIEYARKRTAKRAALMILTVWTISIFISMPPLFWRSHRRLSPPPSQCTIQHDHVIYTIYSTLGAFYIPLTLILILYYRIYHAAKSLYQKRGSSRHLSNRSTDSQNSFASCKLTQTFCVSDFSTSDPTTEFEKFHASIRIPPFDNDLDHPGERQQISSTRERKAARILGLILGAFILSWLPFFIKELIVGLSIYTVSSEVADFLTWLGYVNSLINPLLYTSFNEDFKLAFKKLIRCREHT
CONDITION CONTEXT: Compound concentration 10 µM
Description: PDSP Primary Binding target: HTR1E - Compounds are tested at 10 uM concentration, plate are incubated at room temperature in the dark for 90 minutes. Reaction are stopped by vacuum filtration onto 0.3% polyethyleneimine soaked filter mats using Filtermate harvester. Scintilation cocktail is then melted onto microwave-dried filters on a hot plate and the radio activity is counted in Microbia counter.

- SMILES STRING: "Cc1cc(NC(=O)Nc2ccc(N(C)C)cc2)c2cc(F)cc(F)c2n1"
  inhibition / %: -4.12
- SMILES STRING: "COc1ccccc1CN[C@H]1C2CCN(CC2)[C@H]1C(c1ccccc1)c1ccccc1"
  inhibition / %: 5
- SMILES STRING: "O=C1O[C@]2(CC[C@H](C(=O)Nc3ccn(-c4ccccc4F)n3)CC2)c2cnccc21"
  inhibition / %: 5.31

---

TARGET OR SYSTEM: 5-hydroxytryptamine receptor 5A (Homo sapiens)
CONDITION CONTEXT: Compound concentration 10 µM
Description: PDSP Primary Binding target: HTR5A - Compounds are tested at 10 uM concentration, plate are incubated at room temperature in the dark for 90 minutes. Reaction are stopped by vacuum filtration onto 0.3% polyethyleneimine soaked filter mats using Filtermate harvester. Scintilation cocktail is then melted onto microwave-dried filters on a hot plate and the radio activity is counted in Microbia counter.
inhibition reference
PARAMETER: inhibition (%)

- COMPOUND: "CN1C(=O)[C@@H](NC(=O)c2cc3ccccc3[nH]2)N=C(c2ccccc2)c2ccccc21"
  REPORTED RESULT: -2.34
- COMPOUND: "CC1(C)SSC(C)(C)[C@@H](NC(=O)[C@@H](N)Cc2ccc(O)cc2)C(=O)NCC(=O)N[C@@H](Cc2ccccc2)C(=O)N[C@H]1C(=O)O"
  REPORTED RESULT: -9.01
- COMPOUND: "CC(C)NCC(O)COc1cccc2[nH]ccc12 (centres undefined)"
  REPORTED RESULT: 52.6
- COMPOUND: "CN1CCC(=C2c3ccccc3CC(=O)c3sccc32)CC1"
  REPORTED RESULT: 43.5
- COMPOUND: "CN(C)C(=O)C(CCN1CCC(O)(c2ccc(Cl)cc2)CC1)(c1ccccc1)c1ccccc1"
  REPORTED RESULT: 23.2
- COMPOUND: "O=c1ccn([C@@H]2O[C@H](COP(=O)(O)OP(=O)(O)OP(=O)(O)O)[C@@H](O)[C@H]2O)c(=O)[nH]1"
  REPORTED RESULT: 16.9
- COMPOUND: "COc1cccc([C@H](O)C2CCN(CCc3ccc(F)cc3)CC2)c1OC"
  REPORTED RESULT: 16.8
- COMPOUND: "COc1ccccc1N1CCN(CCCCNC(=O)c2ccc3ccccc3c2)CC1"
  REPORTED RESULT: 76.4
- COMPOUND: "Cc1nc(-c2ccc(C(F)(F)F)cc2)sc1COc1ccc([C@H](CC(=O)O)c2ccon2)cc1"
  REPORTED RESULT: 26.8
- COMPOUND: "Cc1cc(NC(=O)NCCN2CCC(O)(Cc3ccccc3)CC2)c2ccccc2n1"
  REPORTED RESULT: 5.79
- COMPOUND: "COc1cc2nc(N3CCN(C(=O)c4ccco4)CC3)nc(N)c2cc1OC"
  REPORTED RESULT: 83.4
- COMPOUND: "CCCCc1nc(Cl)c(CO)n1Cc1ccc(-c2ccccc2-c2nnn[nH]2)cc1"
  REPORTED RESULT: 16.9
- COMPOUND: "C[C@@H](N)Cc1c[nH]cn1"
  REPORTED RESULT: -3.48
- COMPOUND: "OC1(c2ccc(Cl)cc2)CCN(Cc2c[nH]c3ccccc23)CC1"
  REPORTED RESULT: 37.7

---

TARGET OR SYSTEM: D(4) dopamine receptor (Homo sapiens) (UniProt P21917)
Sequence (P21917 whole entry): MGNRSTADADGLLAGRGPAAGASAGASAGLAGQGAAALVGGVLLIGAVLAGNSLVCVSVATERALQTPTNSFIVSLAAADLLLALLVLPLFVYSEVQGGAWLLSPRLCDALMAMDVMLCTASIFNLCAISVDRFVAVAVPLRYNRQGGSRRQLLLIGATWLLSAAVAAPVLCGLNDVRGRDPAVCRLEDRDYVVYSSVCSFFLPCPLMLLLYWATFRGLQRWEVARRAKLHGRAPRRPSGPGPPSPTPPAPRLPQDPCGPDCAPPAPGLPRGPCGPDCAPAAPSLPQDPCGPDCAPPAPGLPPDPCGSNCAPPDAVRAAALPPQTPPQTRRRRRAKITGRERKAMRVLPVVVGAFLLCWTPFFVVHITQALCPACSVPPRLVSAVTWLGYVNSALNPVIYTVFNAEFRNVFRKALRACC
CONDITION CONTEXT: Compound concentration 10 µM; call rule not given here
Outcomes: active, inactive

- COMPOUND: "CCCCC#Cc1nc(NC)c2ncn([C@@H]3O[C@H](CO)[C@@H](O)[C@H]3O)c2n1"
  TARGET OR SYSTEM: "D(4) dopamine receptor (Homo sapiens) (UniProt P21917)"
  CLASS ASSIGNMENT: "inactive"
- COMPOUND: "COC(=O)[C@H]1[C@H]2C[C@H]3c4[nH]c5ccccc5c4CCN3C[C@H]2CC[C@@H]1O"
  TARGET OR SYSTEM: "D(4) dopamine receptor (Homo sapiens) (UniProt P21917)"
  CLASS ASSIGNMENT: "inactive"
- COMPOUND: "CCCn1c(=O)c2nc(C34CC5CC(CC3C5)C4)[nH]c2n(CCC)c1=O"
  TARGET OR SYSTEM: "D(4) dopamine receptor (Homo sapiens) (UniProt P21917)"
  CLASS ASSIGNMENT: "inactive"
- COMPOUND: "CC(C)NCC(O)c1ccc(N)c(C#N)c1 (configuration not stated)"
  TARGET OR SYSTEM: "D(4) dopamine receptor (Homo sapiens) (UniProt P21917)"
  CLASS ASSIGNMENT: "inactive"
- COMPOUND: "Cc1c(P(=S)(c2ccccc2)c2ccccc2)n2ccccc2[n+]1C/C=C/c1ccccc1"
  TARGET OR SYSTEM: "D(4) dopamine receptor (Homo sapiens) (UniProt P21917)"
  CLASS ASSIGNMENT: "inactive"
- COMPOUND: "Cc1nc(-c2ccc(-c3ccc(C(=O)N4CCc5cc6c(cc54)C4(CCN(C)CC4)CO6)cc3)c(C)c2)no1"
  TARGET OR SYSTEM: "D(4) dopamine receptor (Homo sapiens) (UniProt P21917)"
  CLASS ASSIGNMENT: "inactive"
- COMPOUND: "CN1C2CCC1CC(OC(c1ccc(F)cc1)c1ccc(F)cc1)C2 (configuration not stated)"
  TARGET OR SYSTEM: "D(4) dopamine receptor (Homo sapiens) (UniProt P21917)"
  CLASS ASSIGNMENT: "inactive"
- COMPOUND: "CC(C)NCC(O)COc1cccc2[nH]ccc12 (configuration not stated)"
  TARGET OR SYSTEM: "D(4) dopamine receptor (Homo sapiens) (UniProt P21917)"
  CLASS ASSIGNMENT: "active"
- COMPOUND: "CCCCN(CCCC)C(=O)CN1C[C@@H](c2ccc3c(c2)OCO3)[C@H](C(=O)O)[C@H]1c1ccc(OC)cc1"
  TARGET OR SYSTEM: "D(4) dopamine receptor (Homo sapiens) (UniProt P21917)"
  CLASS ASSIGNMENT: "active"
- COMPOUND: "CCCCCNC(=N)N/N=C/c1c[nH]c2ccc(OC)cc12"
  TARGET OR SYSTEM: "D(4) dopamine receptor (Homo sapiens) (UniProt P21917)"
  CLASS ASSIGNMENT: "active"
- COMPOUND: "Cc1ccccc1N1CCN(S(=O)(=O)C[C@]23CC[C@H](C[C@@H]2NC(=O)[C@@H](N)CCS(C)(=O)=O)C3(C)C)CC1"
  TARGET OR SYSTEM: "D(4) dopamine receptor (Homo sapiens) (UniProt P21917)"
  CLASS ASSIGNMENT: "inactive"
- COMPOUND: "N#Cc1c(O)nc(SCc2cccc(F)c2F)nc1C1CC1"
  TARGET OR SYSTEM: "D(4) dopamine receptor (Homo sapiens) (UniProt P21917)"
  CLASS ASSIGNMENT: "inactive"
- COMPOUND: "CC(C)(C(=O)O)c1ccc(C(O)CCCN2CCC(C(O)(c3ccccc3)c3ccccc3)CC2)cc1 (configuration not stated)"
  TARGET OR SYSTEM: "D(4) dopamine receptor (Homo sapiens) (UniProt P21917)"
  CLASS ASSIGNMENT: "inactive"
- COMPOUND: "Cc1c(F)cccc1NC(=O)Nc1ccc(Cl)c(S(=O)(=O)[C@H]2CCCNC2)c1O"
  TARGET OR SYSTEM: "D(4) dopamine receptor (Homo sapiens) (UniProt P21917)"
  CLASS ASSIGNMENT: "inactive"
- COMPOUND: "CN1CCC(=C2c3ccccc3CC(=O)c3sccc32)CC1"
  TARGET OR SYSTEM: "D(4) dopamine receptor (Homo sapiens) (UniProt P21917)"
  CLASS ASSIGNMENT: "inactive"
- COMPOUND: "CNc1nc(NCc2ccc(NS(C)(=O)=O)cc2Cl)cc(-c2ccccn2)n1"
  TARGET OR SYSTEM: "D(4) dopamine receptor (Homo sapiens) (UniProt P21917)"
  CLASS ASSIGNMENT: "inactive"
- COMPOUND: "COc1cccc([C@@H](C)NCCCc2ccccc2Cl)c1"
  TARGET OR SYSTEM: "D(4) dopamine receptor (Homo sapiens) (UniProt P21917)"
  CLASS ASSIGNMENT: "inactive"
- COMPOUND: "CS(=O)(=O)NC[C@H]1CC[C@H](Nc2nc3c(s2)CCSc2ccccc2-3)CC1"
  TARGET OR SYSTEM: "D(4) dopamine receptor (Homo sapiens) (UniProt P21917)"
  CLASS ASSIGNMENT: "inactive"
- COMPOUND: "COc1cccc(-c2c(C)n(Cc3c(F)cccc3C(F)(F)F)c(=O)n(C[C@H](NCCCC(=O)O)c3ccccc3)c2=O)c1F"
  TARGET OR SYSTEM: "D(4) dopamine receptor (Homo sapiens) (UniProt P21917)"
  CLASS ASSIGNMENT: "inactive"
- COMPOUND: "CCCCN1CCC(COC(=O)c2cc(Cl)c(N)c3c2OCCO3)CC1"
  TARGET OR SYSTEM: "D(4) dopamine receptor (Homo sapiens) (UniProt P21917)"
  CLASS ASSIGNMENT: "inactive"
- COMPOUND: "CC(C)[C@H](CO)Nc1nc(Nc2cccc(Cl)c2)c2ncn(C(C)C)c2n1"
  TARGET OR SYSTEM: "D(4) dopamine receptor (Homo sapiens) (UniProt P21917)"
  CLASS ASSIGNMENT: "active"
- COMPOUND: "CN(C(=O)Cc1ccc(Cl)c(Cl)c1)C(CN1CCCC1)c1cccc(OCC(=O)O)c1 (configuration not stated)"
  TARGET OR SYSTEM: "D(4) dopamine receptor (Homo sapiens) (UniProt P21917)"
  CLASS ASSIGNMENT: "inactive"
